# Tested on: MS2 coat protein
# assay_details: apparent KD of MS2 coat protein; higher = weaker reporter binding
# cond: Eterna round: R107; input ligand: arginine 13.2 mM
measure: apparent KD of MS2 coat protein (nM)
Quick note: give the figure in nM, leave out the unit.

Sample records with apparent KD of MS2 coat protein:
INSERT INTO measurements (sequence_entry, measure, unit_label, val) VALUES
  ('AUAUUAGACCUGGAUACCAGCGACAUGAGGAUCACCCAUGUAUGUGCAUCUGCCAUGAUAUGCCCUUGGCAGCCACCGAGGUCGU [CZZMULLIN]', 'apparent KD of MS2 coat protein', 'nM', 12.4),
  ('AGACCCUUCACGGCCGCCACUCAUUUUAAGUAGAGAGAGUACAUGAGGAUCACCCAUGUGAGAGAGAGGACCGGGUGAGAUAUUA [ss-trypB-0]', 'apparent KD of MS2 coat protein', 'nM', 13.9),
  ('AGACAUGAGGAUCACCCAUGUAGCAUGGAUACCAGAUGUAGAUUAGUCCCUUGGCAGCUGUGGUAAAGUGAUGCAUUGCUCCUAG [Exclusion - Theophylline A (Freestyle 3)]', 'apparent KD of MS2 coat protein', 'nM', 35.2);

Problem: Recall and state the measured apparent KD of MS2 coat protein for AGUGACUACAUCUGGAAUUAAGGUAGGGAAGGAGCGCGGUAAGACGCAGGUAGGUCGCCCUACAUGAGGAUCACCCAUGUGAUGU [XARG-A 28] .
Solution: 75.5

---

# System: MS2 coat protein
# assay_details: apparent KD of MS2 coat protein; higher = weaker reporter binding
# cond: Eterna round: R107; input ligand: tryptophan 2.4 mM
// reported apparent KD of MS2 coat protein per item
Quick note: give the figure in nM, leave out the unit.

Sample records with apparent KD of MS2 coat protein:
INSERT INTO results (sequence_entry, measure, val) VALUES
  ('AUGCACCUCGUCCAGGCAAUCUUUAGUGAUACCAGCUAACUCCUUGGCCCUUGGCAGCACAUGAGGAUCACCCAUGUGCGACAUC [Tidile]', 'apparent KD of MS2 coat protein', 13.9),
  ('ACGAUAGGGCAUGAGGAUCACCCAUGUGAUACCAGCCUGGAAACAGGCCCUUGGCAGCAUUAAUACUCCAAUAACCUAUCGAAUA [TheoAX 17 #MicroSwitchBubble #AlternativeMS2]', 'apparent KD of MS2 coat protein', 111),
  ('UGGGUAGAAUAGAUAGAUAGAUAAACUGAAGGAGCGAGAAUAAACUCAGGUAGGUCGCAGACAUGAGGAUCACCCAUGUAGAUGG [Same State Arginine A GF15]', 'apparent KD of MS2 coat protein', 88.9),
  ('AACAUGGGAUUAAAAUAAAUAAUAACUGAUACCAGACUAUAUAAUGUCCCUUGGCAGCAGAUACAUGAGGAUCACCCAUGUAUUA [JR_Nu_ExcTheophyA_Sub023]', 'apparent KD of MS2 coat protein', 12.8);

Problem: Recall and state the measured apparent KD of MS2 coat protein for AAUAACAUGAGGAUCACCCAUGUAAAAGAUACCAGAGUGAUGAUCCUCCCUUGGCAGCUUAAUAACGCUAUCGGAAACGAUAGCG [Mat - Same State Theophlline A - Mod of Eli - D8] .
Solution: 72

Problem: Recall and state the measured apparent KD of MS2 coat protein for ACGACGCAUAGUGAUACCAGUAGAACAUGAGGAUCACCCAUGUCUGUGGCGCUCCGCCUCUGCCCUUGGCAGCACUAUGCGUCAG [SSTheo B #10] .
Solution: 11.4

Problem: Recall and state the measured apparent KD of MS2 coat protein for GAAACGUAGGUGGAGCGGUGAAAUGGCGAUACCAGCGUGGAAACACGCCCUUGGCAGCGUUAGAACAUGAGGAUCACCCAUGUUU [#21 Exclusion-TheophyllineA] .
Solution: 26.4

Problem: Recall and state the measured apparent KD of MS2 coat protein for AUAAAUAAUAAAUAUAAUAAAGUGGGUGAACGAGGACCGGUACGGCCGCCACUCGGACAUGAGGAUCACCCAUGUCCAUGUGAAA [AstrosExtTry#3] .
Solution: 40.1

Problem: Recall and state the measured apparent KD of MS2 coat protein for UGUAUGGACUGAAGGAGCGGGAAAUAAACUUGAGGAUCACCCAGGUAAUAGGCGAAAGCCACCCAGGUAGGUCGCAGUCCAUACU .
Solution: 28.5

---

# Test system: MS2 coat protein
# assay_details: apparent KD of MS2 coat protein; higher = weaker reporter binding
# cond: Eterna round: R107; input ligand: arginine 13.2 mM
// reported apparent KD of MS2 coat protein per item
State the value with its unit after it.

INSERT INTO results (sequence_entry, val) VALUES
  ('AAACGAGAGACAGAUACCAGCGCAGGAACGGAGUAUGGUGACAUGAGGAUCACCCAUGUGCGCCCUUGGCAGCUGAGCCGUAUUG [theeternabot_exclusion_MS2_Theo_B_37]', '30 nM');

Problem: Recall and state the measured apparent KD of MS2 coat protein for GGGUCAGGCGCGGCCGCCACUGCGGUGAUGUGACAUGAGGAUCACCCAUGUUGUCAUGUGGCACAUAGGACCGGGCGCCUGGCCC [#1 Exclusion - Tryptophan B Attempt #7 (HarryS)] .
Solution: 25.4 nM

Problem: Recall and state the measured apparent KD of MS2 coat protein for UACACAUGACAUGAUACCAGCCCAUGUGAACAUGAGGAUCACCCAUGUAUGAGGACAUGAGGCCCUUGGCAGCAUGUAUACAUGA [Same State Theophylline B 2] .
Solution: 11.6 nM

Problem: Recall and state the measured apparent KD of MS2 coat protein for ACAUGAGGAUCACCCAUGUGCAGAACGGAUACCAGCGUGCUGGUACGCCCUUGGCAGCCGGACAUGAGGAUCACCCAUGUGUGGA [Exclusion Theophylline A GF28] .
Solution: 32.1 nM

---

# System: MS2 coat protein
# assay_details: apparent KD of MS2 coat protein; higher = weaker reporter binding
# cond: Eterna round: R107; input ligand: theophylline 20 uM
// reported apparent KD of MS2 coat protein per item
Quick note: give the figure in nM, leave out the unit.

Sample records with apparent KD of MS2 coat protein:
INSERT INTO assay_data (sequence_entry, unit_label, val) VALUES
  ('GGACUCGUCACGGCCGCCACUGCGGUGGUGUGACAUGAGGAUCACCCAUGUUGUCAUGCGGCCCUUAGGACCGGGUGUCGCGUCC [#1 Exclusion - Tryptophan B Attempt #25 (HarryS)]', 'nM', 100),
  ('UGAUGGUGCGGAAGGAGCGUGUAAGAACAAGAACAUGAGGAUCACCCAUGUAUUAAUUUAACACAGGUAGGUCGCCGUGUUAUUG [11.K]', 'nM', 39.3),
  ('AGCGACAUGCAUGAUACCAGCUACAUGAGGAUCACCCAUGUACGUCAGUAAUGACUGUGUAGCCCUUGGCAGCAUAGAGCAUGUU [Exclusion - Theophylline B (Freestyle 15)]', 'nM', 29.3),
  ('GGGCAAGAGGGAAGGAGCGUCAGCUGAGUCACAUGAGGAUCACCCAUGUAGCACAUAGUGUGACAGGUAGGUCGCCCUCUGCCCU [SS-ArgB5]', 'nM', 14.4),
  ('GCACAACAUGAGGAUCACCCAUGUCGAGAUACCAGAACAUAUAUAUUCCCUUGGCAGCUCACACCUUUAAUGUAAAAUUCUUUGG [theeternabot_sameState_MS2_Theo_A_47]', 'nM', 15.9),
  ('UGGCAAGAGGGAAGGAGCGUCAGCAGAGUAACAUGAGGAUCACCCAUGUAGCACGUGGUGUGACAGGUAGGUCGCCCUCUGCCGU [SS-ArgB13]', 'nM', 77.1),
  ('UUAAUCAUUGAUGAAAACAUUAAUGCAGAAGGAGCGUGAUAAAACACAGGUAGGUCGCUGAAGGGAACAUGAGGAUCACCCAUGU [AstrosSSArgA#16]', 'nM', 36.5);

Pending sequence:
Problem: Recall and state the measured apparent KD of MS2 coat protein for GCUAGGUCUACGGCCGCCACUAGACGUGGGUUAAACAUGAGGAUCACCCAUGUGCUACAGGCGCAUAGGACCGGGUAGACCUAGC [SSTB NP+V+V2 #9 +-Same Structure] .
Solution: 586

---

# Tested on: MS2 coat protein
# assay_details: apparent KD of MS2 coat protein; designed switch direction (-1 OFF switch, 1 ON switch): -1; higher = weaker reporter binding
# cond: input ligand: microRNA oligo, concentration not stated
measure: apparent KD of MS2 coat protein (nM)
Quick note: give the figure in nM, leave out the unit.

Sample records with apparent KD of MS2 coat protein:
INSERT INTO assay_data (sequence_entry, target_entity, measure, val) VALUES
  ('GUCCUCUUGACAUGAGGAUCACCCAUGUUUUAUUUGUUAACUGAGGAUAUACUCUUAUUUUUUAUGUAGAAGGCAGUUUUGUUC [JR_ExcNG3_Sub023] (Eterna round: R96, puzzle: Exclusion NG 3)', 'MS2 coat protein', 'apparent KD of MS2 coat protein', 22),
  ('AAUAAAGGCCGAGGAUAUCGGAAAGGAAGUGUACGAGAAGGUGGCAAAAGAACAUGAGGAUCACCCAUGUGGGCCGAUCUUCCG [PowerStrip EXNG 1.4] (Eterna round: R96, puzzle: Exclusion NG 1)', 'MS2 coat protein', 'apparent KD of MS2 coat protein', 28.8);

Problem: Recall and state the measured apparent KD of MS2 coat protein for ACAUGUAAUGCAGGAUAUCUGACACAUGAGGAUCACCCAUGUGACCAGAGGAAUUGCUAAGAGUCGGAGAAGGGUAUGUACAUG [Ex NG2 #53] (Eterna round: R96, puzzle: Exclusion NG 2) .
Solution: 12.8

Problem: Recall and state the measured apparent KD of MS2 coat protein for CACCGUUAGCGAGGAUAUCGUACAUGAGGAUCACCCAUGUAAUAAAUGAGAAUUUCGGAUGUAUGCGAGAAGGCGCAAAUCGGC [Ostracism 41 - Jieux - Exclusion NG 2] (Eterna round: R96, puzzle: Exclusion NG 2) .
Solution: 45.3
